Biological target: PqsE(WT) (Pseudomonas aeruginosa)
Construct: 6xHis (N); made in house; host or cells: E. coli BL21 (DE3)
Assay: Esterase assay: inhibition of PqsE-catalyzed MU-butyrate hydrolysis
Assay type: biochemical
assayReadout: IC50 (µM)
Numbers only; they are read as µM.

Form: Entry = `Cc1ccc(C(=O)Nc2ccc(NC(=O)OC(C)(C)C)cc2)c2[nH]ncc12` | System = PqsE(WT) (Pseudomonas aeruginosa) | IC50 = ____
0.379

====

Molecular target: PqsE(WT) (Pseudomonas aeruginosa, UniProt P20581)
Construct: 6xHis (N); made in house; host or cells: E. coli BL21 (DE3)
Assay: Esterase assay: inhibition of PqsE-catalyzed MU-butyrate hydrolysis
Format: biochemical
Conditions: 125 nM PqsE, 2 µM MU-butyrate, pH 8.5; read-out: IC50, inhibition of PqsE enzyme function (MU-butyrate hydrolysis)
assayReadout: pIC50
Recall that pIC50 is obtained by taking minus log10 of the concentration measured in molar.

Form: Entry = CC(C)(C)CNC(=O)Nc1ccc(NC(=O)c2cccc3cn[nH]c23)cc1 [BB584, reference compound] | System = PqsE(WT) (Pseudomonas aeruginosa, UniProt P20581) | pIC50 = ____
6.97

Origin of the recorded values: paper PMC13203959
